Data provenance is patent US20170355757A1.

EXPERIMENTAL_TARGET: T1, human C5 R885H-mmh (human, UniProt P01031 19-1676)
T1 construct: also called human C5 variant R885H
MEASUREMENT_DESCRIPTION: SPR, mAb captured via anti-hFc, 37C
REPORTED_ENDPOINT: kon (M⁻¹ s⁻¹)
Give bare numbers, in M⁻¹ s⁻¹.

Past entries and their recorded results:
BINDER | kon [M⁻¹ s⁻¹]
H4H12175P (antibody, human IgG4, V domains shown, Human IgG4 Fc with S108P hinge mutation (H4H)) VH: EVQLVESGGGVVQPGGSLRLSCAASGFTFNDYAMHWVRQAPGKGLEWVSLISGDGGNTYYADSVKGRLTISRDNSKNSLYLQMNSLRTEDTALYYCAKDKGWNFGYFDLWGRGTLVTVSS VL: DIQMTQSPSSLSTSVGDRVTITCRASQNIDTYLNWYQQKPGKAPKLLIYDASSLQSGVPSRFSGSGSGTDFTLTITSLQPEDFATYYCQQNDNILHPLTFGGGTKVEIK | 137000
H4H12170P (antibody, human IgG4, V domains shown, Human IgG4 Fc with S108P hinge mutation (H4H)) VH: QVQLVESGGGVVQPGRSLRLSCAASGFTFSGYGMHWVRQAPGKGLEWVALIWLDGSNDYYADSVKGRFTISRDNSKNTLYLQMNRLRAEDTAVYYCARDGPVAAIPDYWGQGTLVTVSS VL: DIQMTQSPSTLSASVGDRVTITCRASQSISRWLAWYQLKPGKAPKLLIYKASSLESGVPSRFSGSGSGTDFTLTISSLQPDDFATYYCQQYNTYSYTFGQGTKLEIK | 559000

For each listed entry, give its kon.
1. H4H12168P (antibody, human IgG4, V domains shown, Human IgG4 Fc with S108P hinge mutation (H4H)) VH: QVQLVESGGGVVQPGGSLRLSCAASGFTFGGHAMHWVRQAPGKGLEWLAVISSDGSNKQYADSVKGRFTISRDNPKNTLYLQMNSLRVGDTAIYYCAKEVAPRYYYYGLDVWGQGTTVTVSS VL: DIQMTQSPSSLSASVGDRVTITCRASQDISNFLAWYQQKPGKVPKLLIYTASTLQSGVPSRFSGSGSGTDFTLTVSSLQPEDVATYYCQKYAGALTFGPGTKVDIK
2. H4H11683N (antibody, V domains shown, also called H2M11683N) VH: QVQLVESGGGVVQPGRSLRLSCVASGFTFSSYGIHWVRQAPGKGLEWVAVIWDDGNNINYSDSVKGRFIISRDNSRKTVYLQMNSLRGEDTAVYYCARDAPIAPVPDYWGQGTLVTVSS VL: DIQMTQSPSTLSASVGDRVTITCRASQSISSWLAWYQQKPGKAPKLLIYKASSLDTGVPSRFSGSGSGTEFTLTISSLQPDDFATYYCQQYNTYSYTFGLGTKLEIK
3. H4H12161P (antibody, human IgG4, V domains shown, Human IgG4 Fc with S108P hinge mutation (H4H)) VH: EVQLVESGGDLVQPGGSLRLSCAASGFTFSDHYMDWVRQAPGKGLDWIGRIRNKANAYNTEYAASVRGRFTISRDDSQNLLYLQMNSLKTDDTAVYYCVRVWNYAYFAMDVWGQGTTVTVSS VL: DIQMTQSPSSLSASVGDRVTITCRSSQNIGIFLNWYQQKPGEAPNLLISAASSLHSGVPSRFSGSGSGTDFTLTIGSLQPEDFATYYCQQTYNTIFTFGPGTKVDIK

-- reply
1. 24300
2. 548000
3. 118000
